Where do these numbers come from? They come from patent US20240246905A1.

Test system: various Staphylococcus aureus strains
Assay: Disc diffusion, Staphylococcus aureus strain study
Format: cell-based
Conditions: Staphylococcus aureus, strain USFL 018; 500 μg/mL
Description: At this point in the study it was decided to perform a disc diffusion assay study on 50 S. aureus strains. […] The antibiotic activity was determined using a Kirby-Bauer method according to Clinical Standard Laboratory Institute (CSLI) Guidelines (2017). […] Following incubation, the zone of inhibition (if it existed) was recorded.
PROPERTY MEASURED: zone of inhibition at 500 µg/mL (mm)

INSERT INTO assay_data (record_smiles, property_measured, unit_spec, observed_value) VALUES
  ('[C-]#[N+]/C=C/c1ccc(NC(C)=O)cc1/C=C/c1ccccc1', 'zone of inhibition at 500 µg/mL', 'mm', 32),
  ('[C-]#[N+]C=Cc1ccc(O)cc1', 'zone of inhibition at 500 µg/mL', 'mm', 15),
  ('[C-]#[N+]/C=C/c1ccc(O)cc1/C=C/c1ccccc1', 'zone of inhibition at 500 µg/mL', 'mm', 30),
  ('[C-]#[N+]C=Cc1ccc(O)c(Br)c1', 'zone of inhibition at 500 µg/mL', 'mm', 18),
  ('[C-]#[N+]C=Cc1cc(Br)ccc1O', 'zone of inhibition at 500 µg/mL', 'mm', 20);

###

Attribute: zone of inhibition at 500 µg/mL
tested on: various Staphylococcus aureus strains; assay: Disc diffusion, Staphylococcus aureus strain study; format: cell-based; settings: Staphylococcus aureus, strain S139_7_7; 500 μg/mL
PROPERTY MEASURED: zone of inhibition at 500 µg/mL (mm)

INSERT INTO measurements (record_smiles, property_measured, observed_value) VALUES
  ('[C-]#[N+]C=Cc1ccc(O)cc1', 'zone of inhibition at 500 µg/mL', 14),
  ('[C-]#[N+]C=Cc1cc(Br)ccc1O', 'zone of inhibition at 500 µg/mL', 24),
  ('[C-]#[N+]/C=C/c1ccc(NC(C)=O)cc1/C=C/c1ccccc1', 'zone of inhibition at 500 µg/mL', 22),
  ('[C-]#[N+]C=Cc1ccc(O)c(Br)c1', 'zone of inhibition at 500 µg/mL', 20),
  ('[C-]#[N+]/C=C/c1ccc(O)cc1/C=C/c1ccccc1', 'zone of inhibition at 500 µg/mL', 24);

###

system: various Staphylococcus aureus strains; assay: Disc diffusion, Staphylococcus aureus strain study; type: cell-based; conditions: Staphylococcus aureus, strain S295_1_1; 500 μg/mL
Recorded zone of inhibition at 500 µg/mL values for a group of molecules are listed next.
PROPERTY MEASURED: zone of inhibition at 500 µg/mL (mm)

INSERT INTO assay_data (molecule, property_measured, observed_value) VALUES
  ('[C-]#[N+]/C=C/c1ccc(NC(C)=O)cc1/C=C/c1ccccc1 [Compound 41]', 'zone of inhibition at 500 µg/mL', 29),
  ('[C-]#[N+]C=Cc1cc(Br)ccc1O [Compound 13]', 'zone of inhibition at 500 µg/mL', 22),
  ('[C-]#[N+]/C=C/c1ccc(O)cc1/C=C/c1ccccc1 [Compound 36]', 'zone of inhibition at 500 µg/mL', 30),
  ('[C-]#[N+]C=Cc1ccc(O)cc1 [Compound 2, 4-(2-Isocyanovinyl)phenol]', 'zone of inhibition at 500 µg/mL', 20),
  ('[C-]#[N+]C=Cc1ccc(O)c(Br)c1 [Compound 14]', 'zone of inhibition at 500 µg/mL', 22);
